Answer each item with its documented pIC50.
molecular target: ratBuChE (Rattus norvegicus); assay: Ellman's method, BuChE from rat serum
Sequence (Q9JKC1 24-597): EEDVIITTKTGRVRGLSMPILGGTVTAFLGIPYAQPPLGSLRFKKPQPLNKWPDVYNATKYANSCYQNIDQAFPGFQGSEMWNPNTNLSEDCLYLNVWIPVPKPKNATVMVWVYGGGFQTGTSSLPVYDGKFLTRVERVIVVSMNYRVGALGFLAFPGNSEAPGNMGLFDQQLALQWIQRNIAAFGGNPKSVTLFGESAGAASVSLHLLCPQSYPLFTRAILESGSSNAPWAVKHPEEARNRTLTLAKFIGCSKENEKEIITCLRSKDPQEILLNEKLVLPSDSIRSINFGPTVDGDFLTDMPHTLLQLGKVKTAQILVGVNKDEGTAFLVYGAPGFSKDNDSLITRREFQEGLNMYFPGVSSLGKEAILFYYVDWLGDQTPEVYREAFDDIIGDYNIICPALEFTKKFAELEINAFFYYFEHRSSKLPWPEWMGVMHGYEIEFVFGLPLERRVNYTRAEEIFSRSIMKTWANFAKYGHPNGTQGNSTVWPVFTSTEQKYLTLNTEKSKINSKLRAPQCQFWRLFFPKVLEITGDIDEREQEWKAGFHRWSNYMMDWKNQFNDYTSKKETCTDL
pIC50: −log10 of the molar value.

Please look up its pIC50: CCN(CCCOc1ccc(/C=C/C(=O)c2c(O)cc(OC)c(O)c2OC)cc1)Cc1ccccc1OC [Compound 17b]
3.81

Please look up its pIC50: COc1ccccc1CN(C)CCCOc1ccc(/C=C/C(=O)c2c(O)cc(OC)c(OC)c2OC)cc1
< 3.30

Please look up its pIC50: COc1cc(O)c(C(=O)/C=C/c2ccc(O)cc2)c(OC)c1O
< 3.30

Please look up its pIC50: CCN(CCCCCCOc1ccc(/C=C/C(=O)c2c(O)cc(OC)c(OC)c2OC)cc1)Cc1ccccc1OC
< 3.30

Please look up its pIC50: CCN(CC)CCCCOc1ccc(/C=C/C(=O)c2c(O)cc(OC)c(OC)c2OC)cc1
< 3.30

Please look up its pIC50: COc1ccccc1CN(C)CCCCOc1ccc(/C=C/C(=O)c2c(O)cc(OC)c(OC)c2OC)cc1
< 3.30

Please look up its pIC50: CCN(CCCCCCOc1ccc(/C=C/C(=O)c2c(O)cc(OC)c(O)c2OC)cc1)Cc1ccccc1OC [Compound 17f]
< 3.30

Please look up its pIC50: COc1cc(O)c(C(=O)/C=C/c2ccc(O)cc2)c(OC)c1OC
< 3.30

Please look up its pIC50: COc1ccccc1CN(C)CCCCOc1ccc(/C=C/C(=O)c2c(O)cc(OC)c(O)c2OC)cc1 [Compound 17c]
< 3.30

Please look up its pIC50: COc1ccccc1CN(C)CCCOc1ccc(/C=C/C(=O)c2c(O)cc(OC)c(O)c2OC)cc1 [Compound 17a]
3.49

Please look up its pIC50: COc1ccccc1CN(C)CCCCCCOc1ccc(/C=C/C(=O)c2c(O)cc(OC)c(O)c2OC)cc1 [Compound 17e]
< 3.30

----------
molecular target: huMAO-A (Homo sapiens); assay: huMAO-A inhibition, fluorescence method; format: biochemical; conditions: read-out: MAO-A percent inhibition rate
Sequence (P21397 whole entry): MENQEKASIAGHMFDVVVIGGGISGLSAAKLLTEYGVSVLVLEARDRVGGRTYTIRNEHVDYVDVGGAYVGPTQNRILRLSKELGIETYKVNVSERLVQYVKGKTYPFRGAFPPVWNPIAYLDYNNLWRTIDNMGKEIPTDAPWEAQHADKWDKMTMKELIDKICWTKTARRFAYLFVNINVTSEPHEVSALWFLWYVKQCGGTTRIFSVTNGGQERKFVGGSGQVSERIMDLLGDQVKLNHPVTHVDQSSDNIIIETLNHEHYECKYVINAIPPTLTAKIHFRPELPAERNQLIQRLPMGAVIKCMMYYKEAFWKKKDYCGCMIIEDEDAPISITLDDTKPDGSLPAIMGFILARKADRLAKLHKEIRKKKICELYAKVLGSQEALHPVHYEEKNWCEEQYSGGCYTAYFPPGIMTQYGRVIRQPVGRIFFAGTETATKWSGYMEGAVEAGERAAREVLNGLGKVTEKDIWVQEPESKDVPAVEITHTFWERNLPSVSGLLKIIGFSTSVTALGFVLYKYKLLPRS
Classification field: 1 (yes) = inhibition at 10 µM at or over 20%; 0 (no) = inhibition at 10 µM under 20%.

Is it the case that COc1ccccc1CN(C)CCCOc1ccc(/C=C/C(=O)c2c(O)cc(OC)c(O)c2OC)cc1 [Compound 17a] has inhibition at 10 µM reaching or exceeding 20%?
0 (no)

Is it the case that COc1ccccc1CN(C)CCCCCCOc1ccc(/C=C/C(=O)c2c(O)cc(OC)c(O)c2OC)cc1 [Compound 17e] has inhibition at 10 µM reaching or exceeding 20%?
0 (no)

Is it the case that CCN(CCCOc1ccc(/C=C/C(=O)c2c(O)cc(OC)c(O)c2OC)cc1)Cc1ccccc1OC [Compound 17b] has inhibition at 10 µM reaching or exceeding 20%?
0 (no)

Is it the case that COc1ccccc1CN(C)CCCOc1ccc(/C=C/C(=O)c2c(O)cc(OC)c(OC)c2OC)cc1 has inhibition at 10 µM reaching or exceeding 20%?
0 (no)

Is it the case that CCN(CCCCOc1ccc(/C=C/C(=O)c2c(O)cc(OC)c(O)c2OC)cc1)Cc1ccccc1OC [Compound 17d] has inhibition at 10 µM reaching or exceeding 20%?
0 (no)

Is it the case that COc1cc(O)c(C(=O)/C=C/c2ccc(O)cc2)c(OC)c1OC has inhibition at 10 µM reaching or exceeding 20%?
1 (yes)
